Measured EC50, listed per entry.
tested on: KB; assay: Cytotoxicity in vitro expressed as 50% reduction in cell number after a 3-day incubation, in human epidermoid carcinoma KB cell line; assay type: functional, cell-based; settings: 72 h
quantity measured: EC50

INSERT INTO results (smiles_record, quantity_measured, reported_measurement) VALUES
  ('Cn1c(-c2ccccc2)cc(=O)c2ccccc21', 'EC50', '> 10 µg/mL'),
  ('Oc1cc(-c2ccccc2)nc2c(F)cccc12', 'EC50', '0.53 µg/mL'),
  ('Oc1cc(-c2ccccc2)nc2c(O)cccc12', 'EC50', '> 10 µg/mL'),
  ('CS(=O)(=O)Oc1cc(-c2ccccc2)nc2ccccc12', 'EC50', '2.8 µg/mL'),
  ('COc1cc(-c2ccccc2)nc2ccccc12', 'EC50', '> 10 µg/mL'),
  ('Cn1c(-c2ccc(O)cc2)cc(=O)c2ccccc21', 'EC50', '> 10 µg/mL'),
  ('c1ccc(COc2cc(-c3ccccc3)nc3ccccc23)cc1', 'EC50', '1.6 µg/mL'),
  ('Oc1cc(-c2ccccc2)nc2cc(F)ccc12', 'EC50', '< 0.1 µg/mL'),
  ('Oc1cc(-c2ccccc2)nc2ccc(Cl)cc12', 'EC50', '0.49 µg/mL'),
  ('CCOc1cc(-c2ccccc2)nc2ccccc12', 'EC50', '6.7 µg/mL'),
  ('COc1ccc2c(O)cc(-c3ccccc3)nc2c1', 'EC50', '0.53 µg/mL');

----------
biological target: Tubulin beta chain (Bos taurus); test: Inhibition of tubulin polymerization
Sequence (Q6B856 whole entry): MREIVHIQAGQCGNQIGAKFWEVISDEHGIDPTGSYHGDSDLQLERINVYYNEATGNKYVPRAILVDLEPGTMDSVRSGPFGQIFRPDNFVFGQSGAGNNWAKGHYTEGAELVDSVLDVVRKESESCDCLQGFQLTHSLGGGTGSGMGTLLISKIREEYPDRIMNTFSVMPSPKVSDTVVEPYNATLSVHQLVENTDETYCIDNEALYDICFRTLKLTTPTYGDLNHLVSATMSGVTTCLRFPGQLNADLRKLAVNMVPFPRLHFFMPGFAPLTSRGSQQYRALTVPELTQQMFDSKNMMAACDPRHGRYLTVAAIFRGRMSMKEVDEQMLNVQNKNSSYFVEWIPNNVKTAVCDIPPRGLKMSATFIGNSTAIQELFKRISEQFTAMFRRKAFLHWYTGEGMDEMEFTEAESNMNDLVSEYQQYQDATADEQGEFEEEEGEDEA
Measured IC50, listed per entry.
quantity measured: IC50 (µM)

INSERT INTO measurements (smiles_record, unit, reading_qualifier, reported_measurement) VALUES
  ('Oc1cc(-c2ccccc2)nc2ccc(F)cc12', 'µM', '=', 3.3),
  ('Oc1cc(-c2ccccc2)nc2c(F)cccc12', 'µM', '=', 11),
  ('Oc1ccc2nc(-c3ccccc3)cc(O)c2c1', 'µM', '=', 16),
  ('COc1ccc2c(O)cc(-c3ccccc3)nc2c1', 'µM', '=', 4.8),
  ('COc1cccc2c(O)cc(-c3ccccc3)nc12', 'µM', '>', 40),
  ('COc1ccc2nc(-c3ccccc3)cc(O)c2c1', 'µM', '=', 2.7),
  ('COc1cc([C@@H]2c3cc4c(cc3[C@H](O)[C@H]3COC(=O)[C@H]23)OCO4)cc(OC)c1OC', 'µM', '=', 1.3),
  ('Oc1cc(-c2ccccc2)nc2cc(F)ccc12', 'µM', '=', 3.7),
  ('Oc1cc(-c2ccccc2)nc2ccc(Cl)cc12', 'µM', '=', 3.2),
  ('Oc1ccc2c(O)cc(-c3ccccc3)nc2c1', 'µM', '=', 3.4),
  ('Cn1c(-c2ccccc2)cc(=O)c2ccccc21', 'µM', '>', 40);

----------
Measured EC50, listed per entry.
system: P388; assay: Cytotoxicity in vitro expressed as 50% reduction in cell number after a 3-day incubation, in murine leukemia P-388 cell line; type: functional, cell-based; conditions: Mus musculus, P388, 72 h
quantity measured: EC50 (mg/L)

INSERT INTO assay_data (smiles_record, quantity_measured, reading_qualifier, reported_measurement) VALUES
  ('CCCOc1cc(-c2ccccc2)nc2ccccc12', 'EC50', '=', 6.9),
  ('Oc1cc(-c2ccccc2)nc2c(O)cccc12', 'EC50', '>', 10),
  ('COc1ccc2nc(-c3ccccc3)cc(O)c2c1', 'EC50', '=', 0.33),
  ('COCOc1ccc(-c2cc(=O)c3ccccc3n2C)cc1', 'EC50', '>', 10),
  ('CC(C)COc1cc(-c2ccccc2)nc2ccccc12', 'EC50', '>', 10),
  ('Oc1cc(-c2ccccc2)nc2cc(F)ccc12', 'EC50', '=', 0.29),
  ('Cn1c(-c2ccccc2)cc(=O)c2ccccc21', 'EC50', '>', 10),
  ('COc1cc(-c2ccccc2)nc2ccccc12', 'EC50', '=', 4.5),
  ('Cn1c(-c2ccc(O)cc2)cc(=O)c2ccccc21', 'EC50', '>', 10),
  ('Oc1ccc2c(O)cc(-c3ccccc3)nc2c1', 'EC50', '=', 0.81),
  ('Oc1cc(-c2ccccc2)nc2ccc(F)cc12', 'EC50', '=', 0.08),
  ('COc1ccc2c(O)cc(-c3ccccc3)nc2c1', 'EC50', '=', 0.67),
  ('Oc1ccc2nc(-c3ccccc3)cc(O)c2c1', 'EC50', '=', 2.86),
  ('CCCCOc1cc(-c2ccccc2)nc2ccccc12', 'EC50', '>', 10),
  ('Oc1cc(-c2ccccc2)nc2ccc(Cl)cc12', 'EC50', '=', 0.84),
  ('c1ccc(COc2cc(-c3ccccc3)nc3ccccc23)cc1', 'EC50', '>', 10),
  ('CC(C)Oc1cc(-c2ccccc2)nc2ccccc12', 'EC50', '>', 10),
  ('Cc1ccc2nc(-c3ccccc3)cc(O)c2c1', 'EC50', '=', 0.49),
  ('COc1cccc2c(O)cc(-c3ccccc3)nc12', 'EC50', '>', 10),
  ('Oc1cc(-c2ccccc2)nc2cc(Cl)ccc12', 'EC50', '<', 0.1),
  ('CN(C)CCOc1cc(-c2ccccc2)nc2ccccc12', 'EC50', '>', 10),
  ('Oc1cc(-c2ccccc2)nc2c(F)cccc12', 'EC50', '=', 0.78),
  ('Oc1cc(-c2ccccc2)nc2ccccc12', 'EC50', '=', 0.08),
  ('CCOc1cc(-c2ccccc2)nc2ccccc12', 'EC50', '=', 6),
  ('CS(=O)(=O)Oc1cc(-c2ccccc2)nc2ccccc12', 'EC50', '>', 10);

----------
test system: KB; test: Cytotoxicity in vitro expressed as 50% reduction in cell number after a 3-day incubation, in human epidermoid carcinoma KB cell line; assay type: functional, cell-based; details: 72 h
Measured EC50, listed per entry.
quantity measured: EC50 (µg/mL)

INSERT INTO measurements (smiles_record, quantity_measured, unit, reading_qualifier, reported_measurement) VALUES
  ('CCCOc1cc(-c2ccccc2)nc2ccccc12', 'EC50', 'µg/mL', '=', 4.5),
  ('Oc1ccc2c(O)cc(-c3ccccc3)nc2c1', 'EC50', 'µg/mL', '=', 0.55),
  ('Oc1cc(-c2ccccc2)nc2ccc(F)cc12', 'EC50', 'µg/mL', '<', 0.01),
  ('COc1cccc2c(O)cc(-c3ccccc3)nc12', 'EC50', 'µg/mL', '=', 5.05),
  ('COc1ccc2nc(-c3ccccc3)cc(O)c2c1', 'EC50', 'µg/mL', '=', 0.08),
  ('Oc1ccc2nc(-c3ccccc3)cc(O)c2c1', 'EC50', 'µg/mL', '=', 0.41),
  ('Oc1cc(-c2ccccc2)nc2ccccc12', 'EC50', 'µg/mL', '=', 0.09),
  ('CN(C)CCOc1cc(-c2ccccc2)nc2ccccc12', 'EC50', 'µg/mL', '>', 4),
  ('CC(C)Oc1cc(-c2ccccc2)nc2ccccc12', 'EC50', 'µg/mL', '=', 4.2),
  ('Oc1cc(-c2ccccc2)nc2cc(Cl)ccc12', 'EC50', 'µg/mL', '<', 0.1),
  ('CCCCOc1cc(-c2ccccc2)nc2ccccc12', 'EC50', 'µg/mL', '=', 3.8),
  ('CC(C)COc1cc(-c2ccccc2)nc2ccccc12', 'EC50', 'µg/mL', '>', 4),
  ('Cc1ccc2nc(-c3ccccc3)cc(O)c2c1', 'EC50', 'µg/mL', '=', 0.55);
